System: MDA-MB-231
measurement notes: NCI tumour cell line growth inhibition, 48 h
Active and inactive are the calls of the source. Rule as the data show it: active = GI50 up to about 1.1 µM and inactive = higher.
Listed molecules paired with reported GI50
measured quantity: GI50

molecule: Cc1cc(NS(=O)(=O)c2ccc(NC(=O)c3ccc4nc5ccccc5c(Nc5ccc(S(N)(=O)=O)cc5)c4c3)cc2)no1
measured quantity: GI50
result: 24 µM (inactive)

molecule: CC(=O)OC12COC1CC(O)C1(C)C(=O)C(O)C3=C(C)C(O)CC(O)(C(OC(=O)c4ccccc4)C21)C3(C)C (stereo not given)
measured quantity: GI50
result: 7.91 µM (inactive)

molecule: Cn1c(=O)cc(NNc2ccc(Br)cc2)[nH]c1=O
measured quantity: GI50
result: 14.6 µM (inactive)

molecule: CCOC(=O)CCCN
measured quantity: GI50
result: > 100 µM (inactive)

molecule: O=C(C/N=C(\CN(c1ccccc1)c1ccccc1)Oc1c([N+](=O)[O-])cc([N+](=O)[O-])cc1[N+](=O)[O-])N1CCNCC1
measured quantity: GI50
result: > 100 µM (inactive)

molecule: CCOC(=O)c1ccc(C(=O)/C(C(=O)OC(C)(C)C)=C2\CCCN2C)n1C
measured quantity: GI50
result: 80 µM (inactive)

molecule: CCOC(=O)NC(=S)NN(C)C1=NCC(C)(C)S1
measured quantity: GI50
result: > 100 µM (inactive)

molecule: CNC(=O)N(C1=NCC(C)S1)c1ccc(C)c(C)c1 (stereo not given)
measured quantity: GI50
result: 12.1 µM (inactive)

molecule: O=C(O)c1ccccc1C1c2ccccc2Oc2ccccc21
measured quantity: GI50
result: > 100 µM (inactive)

molecule: NCCSCCc1ccccc1
measured quantity: GI50
result: > 100 µM (inactive)

====

Tested on: HT-29
measurement notes: NCI tumour cell line growth inhibition, 48 h
Active and inactive are the calls of the source. Cut-off read from the data, not from the text of the source: active = GI50 up to about 1.1 µM and inactive = higher.
Labels: True = active, False = inactive

compound: O=C1C=CC(=O)C12CCc1ccccc12
label value: False
//
compound: CCN(CC)C(=S)SC1C(=O)NC(=O)NC1=O
label value: False
//
compound: CC(C)(C)CC(C)(C)c1cc2c(O)c(c1)Cc1cc(C(C)(C)CC(C)(C)C)cc(c1O)Cc1cc(C(C)(C)CC(C)(C)C)cc(c1O)Cc1cc(C(C)(C)CC(C)(C)C)cc(c1O)Cc1cc(C(C)(C)CC(C)(C)C)cc(c1O)C2
label value: False
//
compound: O=C(OC1C#CCSCC#C/C=C\1)c1cnc2ccccc2n1 (configuration not stated)
label value: False
//
compound: C[C@H]1O[C@@H](O[C@H]2[C@@H](O)C[C@H](O[C@H]3[C@@H](O)C[C@H](O[C@H]4CC[C@@]5(C)[C@H](CC[C@@H]6[C@@H]5CC[C@]5(C)[C@@H](C7=CC(=O)OC7)CC[C@]65O)C4)O[C@@H]3C)O[C@@H]2C)C[C@H](O)[C@@H]1O
label value: True
//
compound: COC1CC(O[C@H]2CC[C@@]3(C)C(=CCC4(O)C3CCC35C(=O)OC6(C)O[C@@]43CCC65)C2)OC(C)C1O (some centres not stated)
label value: False
//
compound: COc1nc2c(nc(N)n2C2OC(CO)C(O)C(O)C2O)c(=O)n1C (configuration not stated)
label value: False

====

Tested on: HCT-116
measurement notes: NCI tumour cell line growth inhibition, 48 h
Activity calls are given as the source filed them. No stated cut-off is given here; in the data, active = GI50 up to about 1.1 µM and inactive = higher.
Below, each entry is listed with its recorded GI50.

compound: B.CC(=O)OC1CN2CCC1CC2 (configuration not stated)
target desc: HCT-116
GI50: > 100 µM (inactive)
//
compound: O=c1[nH]c(=O)n(C2CC(O)C(CO)O2)cc1C#Cc1c(F)c(F)c(F)c(F)c1F (configuration not stated)
target desc: HCT-116
GI50: > 100 µM (inactive)
//
compound: C/C(=N\NC(N)=S)c1ccc(/C(C)=N/NC(N)=S)cc1
target desc: HCT-116
GI50: > 100 µM (inactive)
//
compound: CCOC(=O)N(c1ccccc1)N(CC)C(=O)/C(C)=N/Nc1ccc([N+](=O)[O-])cc1
target desc: HCT-116
GI50: 14.1 µM (inactive)
//
compound: CC(C)(C)C1C=C(Sc2ccccc2)C(=O)O1 (configuration not stated)
target desc: HCT-116
GI50: 40.1 µM (inactive)
//
compound: CC1=CC(=O)/C(=C/NC(=S)NCc2ccccc2)C(=O)O1
target desc: HCT-116
GI50: > 100 µM (inactive)
//
compound: COC(=O)C1(Cc2ccccc2)Cc2ccccc2C1=O (configuration not stated)
target desc: HCT-116
GI50: 36.1 µM (inactive)
//
compound: CCOC(=O)c1ccc(C(=O)/C(C(=O)OC(C)(C)C)=C2\CCCN2C)n1C
target desc: HCT-116
GI50: 48.5 µM (inactive)
//
compound: O=C(Nc1ccc(Cl)cc1)C(=O)C1=C(O)c2ccccc2OC1
target desc: HCT-116
GI50: > 100 µM (inactive)
//
compound: Cn1cc2ccccc2c1-c1nc(F)nc(F)n1
target desc: HCT-116
GI50: > 100 µM (inactive)
//
compound: O=c1[nH]c(=O)n(C2C(CO)OC(CO)C2O)cc1F (configuration not stated)
target desc: HCT-116
GI50: > 100 µM (inactive)
//
compound: COc1cccc2c1C(=O)c1c(O)c3c(c(O)c1C2=O)C[C@@](O)(C(=O)CN1CCOCC1)C[C@@H]3OC1CC(N)C(O)C(C)O1 (some centres not stated)
target desc: HCT-116
GI50: 1.89 µM (inactive)
//
compound: O=c1ccn([C@@H]2C=C(CO)[C@@H](O)[C@H]2O)c(=O)[nH]1
target desc: HCT-116
GI50: > 625 µM (inactive)
//
compound: CNC(=O)N(C1=NCC(C)S1)c1ccc(C)c(C)c1 (configuration not stated)
target desc: HCT-116
GI50: 3.5 µM (inactive)
//
compound: C[C@@H](C1CCC2C3C(=CC(=O)[C@@]21C)[C@H](C)[C@]1(CCC(=O)O1)C1OC31)[C@H]1C[C@]2(C)O[C@@](C)(O1)OC2(C)C (some centres not stated)
target desc: HCT-116
GI50: > 100 µM (inactive)
//
compound: O=[N+]([O-])c1ccc2[nH]c(-c3ccc(Cl)cc3)nc2c1
target desc: HCT-116
GI50: 17.3 µM (inactive)
//
compound: CCn1c2ccc(C(=O)CCCN(C)C)cc2c2cc(C(=O)CCCN(C)C)ccc21
target desc: HCT-116
GI50: 0.593 µM (active)
//
compound: O=C(NC1=C(Cl)C(=O)c2ccccc2C1=O)c1ccc(F)cc1
target desc: HCT-116
GI50: 0.455 µM (active)
//
compound: Cn1c(=O)c2c(nc(NCCCCl)n2CC(=O)NCCCCl)n(C)c1=O
target desc: HCT-116
GI50: > 100 µM (inactive)
//
compound: NC(=O)C(=CNC(=S)Nc1cccc(C(F)(F)F)c1)C(N)=O
target desc: HCT-116
GI50: > 100 µM (inactive)
//
compound: CC1CCCN(CC(O)CN2CCCc3ccccc32)C1 (configuration not stated)
target desc: HCT-116
GI50: > 100 µM (inactive)
//
compound: CC(C)(C)OC(=O)N1NC(c2ccccc2)CC1c1ccccc1 (configuration not stated)
target desc: HCT-116
GI50: 29.7 µM (inactive)
